- experimental-system: 5-hydroxytryptamine receptor 1A (Homo sapiens, UniProt P08908)
- Sequence (P08908 whole entry): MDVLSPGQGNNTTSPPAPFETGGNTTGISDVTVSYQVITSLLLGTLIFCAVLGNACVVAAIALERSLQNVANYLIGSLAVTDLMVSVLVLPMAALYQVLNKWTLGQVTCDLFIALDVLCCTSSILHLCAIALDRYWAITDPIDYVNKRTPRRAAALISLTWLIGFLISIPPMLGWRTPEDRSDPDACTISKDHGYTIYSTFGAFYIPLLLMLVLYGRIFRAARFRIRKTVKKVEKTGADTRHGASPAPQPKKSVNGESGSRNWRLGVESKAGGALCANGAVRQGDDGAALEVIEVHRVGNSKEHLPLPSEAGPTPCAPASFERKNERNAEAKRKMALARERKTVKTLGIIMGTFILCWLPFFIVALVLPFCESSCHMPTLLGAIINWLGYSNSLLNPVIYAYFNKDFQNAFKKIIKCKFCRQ
- assay-explanation: Inhibition of 5-HT1A (unknown origin)
pIC50: −log10 of the molar value.
quantity-name: pIC50

1) COCCCOc1cc(C(=O)N(C[C@@H]2CNC[C@H]2Cc2ccccc2)C(C)C)ccc1OC.Cl : < 6.00

###

- assay-explanation: Cmax in jugular vein cannulated Sprague-Dawley rat at 6 mg/kg, po by HPLC-MS analysis
- Format: ADME, organism-based
- Set-up: dose 6 mg/kg, route oral
- assay-setup: in vivo
quantity-name: Cmax

1. COCCCOc1cc(C(=O)N(C[C@@H]2CNC[C@H]2Cc2ccccc2)C(C)C)ccc1OC.Cl : 1310 nM

These data points were gathered from ChEMBL document CHEMBL2321868.
